Data provenance is patent US20240108738A1.

# Tested system: T1, human NKp46 on cells (CHO-K1/NKp46 cells; CD56+ NK cells of human PBMCs) (human, UniProt O76036 22-304)
# T1 construct: whole, on cells; also called NCR1; CD355
# T1 sequence (O76036 22-304): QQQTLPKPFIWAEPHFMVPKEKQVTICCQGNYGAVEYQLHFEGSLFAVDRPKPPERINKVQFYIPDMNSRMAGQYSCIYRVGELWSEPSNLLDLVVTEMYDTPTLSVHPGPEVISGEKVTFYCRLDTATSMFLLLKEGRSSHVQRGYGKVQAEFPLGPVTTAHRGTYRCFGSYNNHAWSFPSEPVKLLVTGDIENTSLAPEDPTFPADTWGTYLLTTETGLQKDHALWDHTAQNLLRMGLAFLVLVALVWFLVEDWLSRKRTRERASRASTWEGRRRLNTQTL
# Experiment summary: Kd,app, flow cytometry, total CD56 population of human PBMCs
Attribute measured: Kd (nM)

binder="ACYLPDYLCGDEYCAK (not fully specified; C-terminal D-Lys(PYA) joined to N-(amine-PEG2)-N-bis(PEG3-azide) linker carrying AF488, homodimer of BCY15452; scaffold TATA) [BCY15663]" observed=0.028
